Value source: paper PMC9178606

# Tgt: cathepsin-B (Homo sapiens, UniProt P07858)
pIC50: −log10 of the molar value.
Measurement Type: pIC50

Cc1nc2ccc(Cl)cc2c(=O)n1NC(=O)CCl	4.50
COc1ccc2cc(/C=N/n3c(C)nc4ccc(Br)cc4c3=O)ccc2c1	3.88

====

// IC50 lookup, one value per entry
# Tgt: hsPLA2-G-X (Homo sapiens)
# Sequence (O15496 43-165): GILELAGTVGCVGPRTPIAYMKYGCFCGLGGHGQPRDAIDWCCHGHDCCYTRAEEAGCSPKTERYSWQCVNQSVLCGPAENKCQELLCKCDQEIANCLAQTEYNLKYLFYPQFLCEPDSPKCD
Measurement Type: IC50 (µM)

COc1cc(/C=N/n2c(C)nc3ccc(Br)cc3c2=O)ccc1O [Compound 3g]	14.5
COc1cc(/C=N/n2c(C)nc3ccc(C)cc3c2=O)cc([N+](=O)[O-])c1O [Compound 3d]	21.4

====

# Tgt: hsPLA2-G-V (Homo sapiens, UniProt P39877)
# Sequence (P39877 21-138): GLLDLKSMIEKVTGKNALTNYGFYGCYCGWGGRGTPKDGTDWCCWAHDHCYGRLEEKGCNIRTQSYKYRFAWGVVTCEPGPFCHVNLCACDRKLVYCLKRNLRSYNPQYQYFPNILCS
Measurement Type: IC50 (µM)

COc1cc(/C=N/n2c(C)nc3ccc(Br)cc3c2=O)ccc1O [Compound 3g]	22.3
Cc1nc2ccccc2c(=O)n1NC(=O)CSc1nc2ccccc2c(=O)n1-c1ccccc1 [Compound 10]	14.7
O=c1c2ccccc2[nH]c(=S)n1-c1ccccc1 [Compound 9, 2-Mercapto-3-phenyl-3H-quinazolin-4-one]	151

====

# Test system: LoVo cells
# Assay Remarks: Cytotoxicity assay
# Type: cell-based
# Run Parameters: Homo sapiens, 24 h, read-out: % of Viable cells, LoVo cell line of CRC
Measurement Type: viability at 200 µg/mL

Cc1nc2ccc(Cl)cc2c(=O)n1NC1=NC(=O)CS1	13.5%
COc1cc(/C=N/n2c(C)nc3ccc(C)cc3c2=O)cc([N+](=O)[O-])c1O	90.5%
Cc1nc2ccccc2c(=O)n1NC(=O)CSc1nc2ccccc2c(=O)n1-c1ccccc1	22%
COc1cc(/C=N/n2c(C)nc3ccc(Br)cc3c2=O)ccc1O	16.8%
COc1ccc2cc(/C=N/n3c(C)nc4ccc(Br)cc4c3=O)ccc2c1	58%

====

Parameter pIC50: see the listing below.
# Tgt: hsPLA2-G-IIA (Homo sapiens, UniProt P14555)
# Sequence (P14555 21-144): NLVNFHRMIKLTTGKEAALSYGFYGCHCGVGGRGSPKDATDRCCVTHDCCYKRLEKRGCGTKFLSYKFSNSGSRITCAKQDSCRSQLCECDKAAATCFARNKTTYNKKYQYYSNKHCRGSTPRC
pIC50: −log10 of the molar value.
Measurement Type: pIC50

Cc1nc2ccc(Cl)cc2c(=O)n1NC(=O)CCl	3.89
Cc1nc2ccccc2c(=O)n1NC(=O)CSc1nc2ccccc2c(=O)n1-c1ccccc1	4.86

====

# Tgt: thrombin (Homo sapiens)
pIC50: −log10 of the molar value.
Measurement Type: pIC50

Cc1nc2ccc(Cl)cc2c(=O)n1NC1=NC(=O)CS1	6.14
